Provenance of the data: PubChem BioAssay

# TESTED_TARGET: Potassium voltage-gated channel subfamily KQT member 2 (Rattus norvegicus) (UniProt O88943)
# Sequence (O88943 whole entry, looked up): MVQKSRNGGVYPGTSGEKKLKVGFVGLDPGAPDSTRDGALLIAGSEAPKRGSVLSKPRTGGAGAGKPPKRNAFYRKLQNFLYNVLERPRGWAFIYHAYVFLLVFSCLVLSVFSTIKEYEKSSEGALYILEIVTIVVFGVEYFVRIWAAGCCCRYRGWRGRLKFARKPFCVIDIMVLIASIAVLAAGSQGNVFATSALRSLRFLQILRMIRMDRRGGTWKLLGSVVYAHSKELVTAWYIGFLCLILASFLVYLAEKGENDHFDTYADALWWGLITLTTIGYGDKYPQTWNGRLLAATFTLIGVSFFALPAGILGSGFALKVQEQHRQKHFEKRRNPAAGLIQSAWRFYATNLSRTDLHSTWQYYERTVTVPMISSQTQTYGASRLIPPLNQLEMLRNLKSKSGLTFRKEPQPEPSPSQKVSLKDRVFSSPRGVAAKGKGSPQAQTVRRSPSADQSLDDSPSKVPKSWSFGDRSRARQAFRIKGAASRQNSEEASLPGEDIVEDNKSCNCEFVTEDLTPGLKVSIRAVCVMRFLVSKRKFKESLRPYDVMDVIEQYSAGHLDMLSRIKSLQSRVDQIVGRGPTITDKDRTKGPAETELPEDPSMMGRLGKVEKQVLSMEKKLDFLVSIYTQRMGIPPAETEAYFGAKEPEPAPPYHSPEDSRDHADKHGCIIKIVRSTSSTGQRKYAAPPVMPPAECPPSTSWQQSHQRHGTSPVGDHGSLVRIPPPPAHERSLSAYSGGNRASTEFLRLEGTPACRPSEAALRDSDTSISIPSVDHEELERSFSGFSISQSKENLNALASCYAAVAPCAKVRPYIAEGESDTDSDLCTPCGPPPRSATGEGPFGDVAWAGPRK
# EXPERIMENT_DESCRIPTION: rat KCNQ2 channel potentiation, selectivity assay for KCNQ1 potentiator project, KCNQ2-CHO-K1 cells (AID 493009);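 note: assay conditions were tuned for KCNQ1 rather than KCNQ2 modulators; signal is max minus min fluorescence divided by baseline after thallium stimulus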
# CONDITION_NOTES: FluxOR thallium flux fluorescence, at 10 µM, scaled: buffer 0, activator control 100
Calls of active or inactive are those of the source.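 Rule for the calls: active = mean duplicate potentiation above the buffer control mean plus 5 SD of buffer wells; inactive = the rest.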
// classify into active, inactive

Q: Which outcome was assigned to Cc1ccc2nc(NC(=S)NC(=O)c3ccco3)sc2c1 in this test?
Result: active

Q: Recorded call for CCOc1ccc(NC(=O)c2ccc(N)cc2)cc1 ?
Result: inactive

Q: Tell me the assay call for COc1ccc(-c2csc(NC(=O)C3CCCCN3S(=O)(=O)c3ccccc3)n2)cc1 (stereo unspecified) please.
Result: inactive

Q: Hey, what did the test say about Cc1ccc(N(C(=O)Cn2nnc(-c3ccccc3F)n2)C(C(=O)NC2CCCC2)c2ccncc2)cc1 (stereo unspecified) ?
Result: inactive

Q: Can you look up the reported call for C/C(=N\NC(=O)C(=O)Nc1cccc(C(F)(F)F)c1)c1ccc(Cl)s1 for me?
Result: inactive

Q: Fill in: this test's call for CC1(c2ccccc2)CC(C)(C)N2C(=O)/C(=C3\SC(=S)NC3=O)c3cccc1c32 (stereo unspecified) is ___
Result: active

Q: Which outcome was assigned to Cc1ccc(-n2ncc(C(=O)Nc3cc(Cl)cc(Cl)c3)c2C2CCNCC2)cc1C in this test?
Result: inactive

Q: State the result this test recorded for Cn1c(O)c(N=NC(=S)Nc2ccccc2F)c2cc(S(=O)(=O)N3CCOCC3)ccc21 .
Result: inactive

Q: Status in this test for CSc1nnc(-c2ccccc2)o1 ?
Result: inactive

Q: GET /call?item= Cc1ccc(N=Cc2cc(Br)cc(Cl)c2O)cc1 returns the recorded outcome of this test.
Result: active

Q: Assay result, entry O=C(Nc1ccccc1Cl)N1CCN(c2ccccn2)CC1 — outcome?
Result: inactive
